Hello, the source for this data is PubChem BioAssay, in case you need it.

Biological target: Torsin-1A-interacting protein 2 (Homo sapiens)
Test: small molecules binding lysate-expressed LULL1 – cell lysate, human LULL1 lysate, 635/667 nm fluorescence, primary screen (AID 1092);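 further: probe is lysate of COS7 cells overexpressing human LULL1; score merges per-feature 667 nm fluorescence with signal-to-noise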
Conditions: small-molecule microarray, hLULL1 lysate binding, 635 nm fluorescence; higher = more signal
Label true (1) for high-side composite z-score (at or above 3) and false (0) for low-side composite z-score (below it).

Is reported composite z-score greater than or equal to 3 here: COCCOC(=O)N1C(=O)[C@@]2(c3cc(C#CCCO)ccc31)[C@H](c1ccc(OCCO)cc1)N1[C@H](c3ccccc3)[C@H](c3ccccc3)OC(=O)[C@H]1[C@@H]2C(N)=O false (0)

Is reported composite z-score greater than or equal to 3 here: COC(=O)[C@@]1(Cc2ccc(OC)cc2)[C@H]2c3cc(C(=O)N4CCCC4)n(Cc4nc5ccccc5[nH]4)c3C[C@H]2CN1C(=O)c1ccccc1 true (1)

Is reported composite z-score greater than or equal to 3 here: COc1ccc([Si](C)(C)[C@@H]2[C@@H](CCO)O[C@]3(C(=O)N(Cc4cccc(N5CCOC5=O)c4)c4ccccc43)[C@H]2C)cc1 false (0)
